target-of-assay: purified HLA-DR DRB4*0101 (human)
assay-name: competition with 125I-labelled reference peptide, purified HLA
property-measured: IC50

1) LIQLIVSGRDEQSIA (modifications not checked) [Flu.PB2.384] = 9.9 nM
2) ESAVLRGFLILGKED (modifications not checked) [Flu.PB2.690] = 1280 nM
